# Tested on: MCF7
# Method summary: Cytotoxicity against human MCF7 cells after 48 hrs by MTT assay
# Assay type: functional, cell-based
# Measurement parameters: MCF7, 48 h
Endpoint label: pIC50
The quantity pIC50 is defined as the negative base-10 logarithm of the molar concentration.

Some compounds with known pIC50 results, for comparison:
{"columns": ["Cpd smiles", "pIC50"],
 "data": [
  ["Cn1cnc(C(=O)NNC(=O)COc2ccc(C(=O)c3ccccc3)cc2)c1", 4.51],
  ["Cc1ccc(C(=O)c2cc(F)c(OCC(=O)NNC(=O)c3ccc(=O)oc3)c(Cl)c2)cc1", 4.63],
  ["Cn1cnc(C(=O)NNC(=O)COc2c(F)cc(C(=O)c3ccc(F)cc3)cc2Cl)c1", 4.35],
  ["O=C(COc1c(F)cc(C(=O)c2ccc(F)cc2)cc1Cl)NNC(=O)c1ccc(=O)oc1", 4.20]
]}

Now for another entry.
Lab note: need pIC50 with MCF7 for entry Cc1ccc(C(=O)c2cc(F)c(OCC(=O)NNC(=O)c3cn(C)cn3)c(Cl)c2)cc1 , please look it up. 5.01

----------
# Tested on: HeLa
# Method summary: Cytotoxicity against human HeLa cells after 48 hrs by trypan blue exclusion assay
# Type: functional, cell-based
Endpoint label: pIC50
The quantity pIC50 is defined as the negative base-10 logarithm of the molar concentration.

Some compounds with known pIC50 results, for comparison:
{"columns": ["Cpd smiles", "pIC50"],
 "data": [
  ["Cc1ccc(C(=O)c2cc(F)c(OCC(=O)NNC(=O)c3cn(C)cn3)c(Cl)c2)cc1", 4.99],
  ["Cn1cnc(C(=O)NNC(=O)COc2ccc(C(=O)c3ccccc3)cc2)c1", 4.48],
  ["O=C(COc1c(F)cc(C(=O)c2ccc(Cl)cc2)cc1Cl)NNC(=O)c1ccc(=O)oc1", 4.05]
]}

Now for another entry.
Lab note: need pIC50 with HeLa for entry Cn1cnc(C(=O)NNC(=O)COc2c(F)cc(C(=O)c3ccc(F)cc3)cc2Cl)c1 , please look it up. 4.40

----------
# System: MCF7
# Method summary: Cytotoxicity against human MCF7 cells after 48 hrs by MTT assay
# Assay type: functional, cell-based
# Measurement parameters: MCF7, 48 h
IC50 for assorted molecules
Give the number; µM is assumed, so skip it.

I am curious: what IC50 value has been reported for O=C(COc1c(F)cc(C(=O)c2ccc(Cl)cc2)cc1Cl)NNC(=O)c1ccc(=O)oc1 ? 86.2

I am curious: what IC50 value has been reported for O=C(COc1ccc(C(=O)c2ccccc2)cc1)NNC(=O)c1ccc(=O)oc1 ? 93.2

I am curious: what IC50 value has been reported for Cn1cnc(C(=O)NNC(=O)COc2c(F)cc(C(=O)c3ccc(Cl)cc3)cc2Cl)c1 ? 43.1

----------
# Tested on: HeLa
# Method summary: Cytotoxicity against human HeLa cells after 48 hrs by trypan blue exclusion assay
# Type: functional, cell-based
Endpoint label: IC50

{"columns": ["Cpd smiles", "Endpoint label", "Assay value"],
 "data": [
  ["Cc1ccc(C(=O)c2cc(F)c(OCC(=O)NNC(=O)c3ccc(=O)oc3)c(Cl)c2)cc1", "IC50", "26.2 µM"],
  ["O=C(COc1ccc(C(=O)c2ccccc2)cc1)NNC(=O)c1ccc(=O)oc1", "IC50", "89.2 µM"],
  ["O=C(COc1c(F)cc(C(=O)c2ccc(F)cc2)cc1Cl)NNC(=O)c1ccc(=O)oc1", "IC50", "59.2 µM"]
]}

Now for another entry.
I am curious: what IC50 value has been reported for Cn1cnc(C(=O)NNC(=O)COc2c(F)cc(C(=O)c3ccc(Cl)cc3)cc2Cl)c1 ? 51.6 µM
